meta.source: patent US20120270929A1

Test: Body and organ weights in C57BL/6 mice
Type: in vivo, mouse
Conditions: week 2, 50 mg/kg/week
Oligonucleotides are written 5' to 3', each unit as a sugar letter and its base; * is a phosphorothioate linkage, no mark a phosphodiester; rarer units and linkages stand in square brackets, end groups in braces. Plain capitals give the bases only. e = 2'-O-(2-methoxyethyl) (MOE); [5mC] = 5-methylcytosine; d = 2'-deoxy (DNA)
readout_type: body weight (g)
Express it in g; write the number only.

The cases that follow already have their body weight on record.
- item_sequence: "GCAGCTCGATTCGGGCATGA (antisense eG*e[5mC]*eA*eG*e[5mC]*dT*d[5mC]*dG*dA*dT*dT*d[5mC]*dG*dG*dG*e[5mC]*eA*eT*eG*eA) [ISIS 447118]"
  body weight (g): 25
- item_sequence: "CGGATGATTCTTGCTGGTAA (antisense e[5mC]*eG*eG*eA*eT*dG*dA*dT*dT*d[5mC]*dT*dT*dG*d[5mC]*dT*eG*eG*eT*eA*eA) [ISIS 447114]"
  body weight (g): 25
- item_sequence: "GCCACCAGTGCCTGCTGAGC (antisense eG*e[5mC]*e[5mC]*eA*e[5mC]*d[5mC]*dA*dG*dT*dG*d[5mC]*d[5mC]*dT*dG*d[5mC]*eT*eG*eA*eG*e[5mC]) [ISIS 447143]"
  body weight (g): 26

Let's switch to this sequence now.
[ask] Returns the measured body weight for the input sequence. Input: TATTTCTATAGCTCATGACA (antisense eT*eA*eT*eT*eT*d[5mC]*dT*dA*dT*dA*dG*d[5mC]*dT*d[5mC]*dA*eT*eG*eA*e[5mC]*eA) [ISIS 447144]
[reply] 26

---

System: murine TTC39A mRNA
Assay: Dose-dependent antisense inhibition of murine TTC39A in b.END cells
Type: cell-based, mouse
Settings: 8.75 nM, ~16 h
Oligonucleotides are written 5' to 3', each unit as a sugar letter and its base; * is a phosphorothioate linkage, no mark a phosphodiester; rarer units and linkages stand in square brackets, end groups in braces. Plain capitals give the bases only. e = 2'-O-(2-methoxyethyl) (MOE); [5mC] = 5-methylcytosine; d = 2'-deoxy (DNA)
Readings of percent inhibition of TTC39A mRNA for the listed sequences
Express it in %; write the number only.

The cases that follow already have their percent inhibition of TTC39A mRNA on record.
- item_sequence: "GCCTCAGAATCCTGGTGGGA (eG*e[5mC]*e[5mC]*eT*e[5mC]*dA*dG*dA*dA*dT*d[5mC]*d[5mC]*dT*dG*dG*eT*eG*eG*eG*eA; antisense) [ISIS 474437]"
  units: "%"
  percent inhibition of TTC39A mRNA: 6
- item_sequence: "GCATGTAGAGAACTTCCAGG (eG*e[5mC]*eA*eT*eG*dT*dA*dG*dA*dG*dA*dA*d[5mC]*dT*dT*e[5mC]*e[5mC]*eA*eG*eG; antisense) [ISIS 474382]"
  units: "%"
  percent inhibition of TTC39A mRNA: 10
- item_sequence: "CACCTGGGTTTGAGGTAGCT (e[5mC]*eA*e[5mC]*e[5mC]*eT*dG*dG*dG*dT*dT*dT*dG*dA*dG*dG*eT*eA*eG*e[5mC]*eT; antisense) [ISIS 474498]"
  units: "%"
  percent inhibition of TTC39A mRNA: 6

[ask] Returns the measured percent inhibition of TTC39A mRNA for the input sequence. Input: TCCTTGCTCAGCAGGTCGGC (eT*e[5mC]*e[5mC]*eT*eT*dG*d[5mC]*dT*d[5mC]*dA*dG*d[5mC]*dA*dG*dG*eT*e[5mC]*eG*eG*e[5mC]; antisense) [ISIS 474366]
[reply] 0

[ask] Returns the measured percent inhibition of TTC39A mRNA for the input sequence. Input: TCCATGGAGTAGTTCTTGTA (eT*e[5mC]*e[5mC]*eA*eT*dG*dG*dA*dG*dT*dA*dG*dT*dT*d[5mC]*eT*eT*eG*eT*eA; antisense) [ISIS 474452]
[reply] 9

---

Test system: murine TTC39C mRNA
Assay: Dose-dependent antisense inhibition of murine TTC39C in mouse primary hepatocytes
Type: cell-based
Settings: 8000.0 nM, electroporation, ~16 h
Oligonucleotides are written 5' to 3', each unit as a sugar letter and its base; * is a phosphorothioate linkage, no mark a phosphodiester; rarer units and linkages stand in square brackets, end groups in braces. Plain capitals give the bases only. e = 2'-O-(2-methoxyethyl) (MOE); [5mC] = 5-methylcytosine; d = 2'-deoxy (DNA)
Readings of percent inhibition of TTC39C mRNA for the listed substances
Express it in %; write the number only.

- substance: "ISIS 474654: 5-10-5 MOE gapmer antisense oligonucleotide targeting murine TTC39C (antisense eT*e[5mC]*eA*eG*e[5mC]*dT*dA*d[5mC]*dA*dG*dA*dA*d[5mC]*dG*d[5mC]*eA*eG*eG*eG*eT)"
  experimental_system: "murine TTC39C mRNA"
  experimental_value: 74
- substance: "ISIS 474538: 5-10-5 MOE gapmer antisense oligonucleotide targeting murine TTC39C (antisense eT*eA*eG*e[5mC]*eA*d[5mC]*dG*d[5mC]*dA*dT*dA*dT*dG*dG*d[5mC]*eG*eG*eG*eA*e[5mC])"
  experimental_system: "murine TTC39C mRNA"
  experimental_value: 92
- substance: "ISIS 474604: 5-10-5 MOE gapmer antisense oligonucleotide targeting murine TTC39C (antisense eT*eG*eT*e[5mC]*eA*d[5mC]*dT*dG*d[5mC]*d[5mC]*dG*dT*d[5mC]*d[5mC]*dA*eA*eA*eG*e[5mC]*eA)"
  experimental_system: "murine TTC39C mRNA"
  experimental_value: 96

[ask] Returns the measured percent inhibition of TTC39C mRNA for the input substance. Input: ISIS 474540: 5-10-5 MOE gapmer antisense oligonucleotide targeting murine TTC39C (antisense e[5mC]*e[5mC]*eA*e[5mC]*eT*dG*dG*dG*dA*dG*dT*dT*dT*dA*dT*e[5mC]*eA*e[5mC]*eT*eG)
[reply] 97

---

Readings of percent inhibition of TTC39B mRNA for the listed sequences
System: murine TTC39B mRNA
Test: Dose-dependent antisense inhibition of murine TTC39B in mouse primary hepatocytes (Example 3)
Format: cell-based
Conditions: 6.25 nM, cytofectin, ~16 h
Oligonucleotides are written 5' to 3', each unit as a sugar letter and its base; * is a phosphorothioate linkage, no mark a phosphodiester; rarer units and linkages stand in square brackets, end groups in braces. Plain capitals give the bases only. e = 2'-O-(2-methoxyethyl) (MOE); [5mC] = 5-methylcytosine; d = 2'-deoxy (DNA)

The cases that follow already have their percent inhibition of TTC39B mRNA on record.
- item_sequence: "TGTCAGTGACAGTGGCAGCT (antisense eT*eG*eT*e[5mC]*eA*dG*dT*dG*dA*d[5mC]*dA*dG*dT*dG*dG*e[5mC]*eA*eG*e[5mC]*eT) [ISIS 447159]"
  experimental_system: "murine TTC39B mRNA"
  percent inhibition of TTC39B mRNA: "12%"
- item_sequence: "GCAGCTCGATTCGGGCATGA (antisense eG*e[5mC]*eA*eG*e[5mC]*dT*d[5mC]*dG*dA*dT*dT*d[5mC]*dG*dG*dG*e[5mC]*eA*eT*eG*eA) [ISIS 447118]"
  experimental_system: "murine TTC39B mRNA"
  percent inhibition of TTC39B mRNA: "0%"
- item_sequence: "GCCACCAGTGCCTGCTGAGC (antisense eG*e[5mC]*e[5mC]*eA*e[5mC]*d[5mC]*dA*dG*dT*dG*d[5mC]*d[5mC]*dT*dG*d[5mC]*eT*eG*eA*eG*e[5mC]) [ISIS 447143]"
  experimental_system: "murine TTC39B mRNA"
  percent inhibition of TTC39B mRNA: "7%"

Let's switch to this sequence now.
[ask] Returns the measured percent inhibition of TTC39B mRNA for the input sequence. Input: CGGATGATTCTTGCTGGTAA (antisense e[5mC]*eG*eG*eA*eT*dG*dA*dT*dT*d[5mC]*dT*dT*dG*d[5mC]*dT*eG*eG*eT*eA*eA) [ISIS 447114]
[reply] 6%

---

Assay: Body and organ weights in C57BL/6 mice
Format: in vivo, mouse
Settings: week 5, 50 mg/kg/week
Oligonucleotides are written 5' to 3', each unit as a sugar letter and its base; * is a phosphorothioate linkage, no mark a phosphodiester; rarer units and linkages stand in square brackets, end groups in braces. Plain capitals give the bases only. e = 2'-O-(2-methoxyethyl) (MOE); [5mC] = 5-methylcytosine; d = 2'-deoxy (DNA)
Readings of body weight for the listed sequences
Express it in g; write the number only.

The cases that follow already have their body weight on record.
- item_sequence: "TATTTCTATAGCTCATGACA (antisense eT*eA*eT*eT*eT*d[5mC]*dT*dA*dT*dA*dG*d[5mC]*dT*d[5mC]*dA*eT*eG*eA*e[5mC]*eA) [ISIS 447144]"
  experimental_value: 27
- item_sequence: "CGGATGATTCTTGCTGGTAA (antisense e[5mC]*eG*eG*eA*eT*dG*dA*dT*dT*d[5mC]*dT*dT*dG*d[5mC]*dT*eG*eG*eT*eA*eA) [ISIS 447114]"
  experimental_value: 27
- item_sequence: "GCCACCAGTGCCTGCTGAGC (antisense eG*e[5mC]*e[5mC]*eA*e[5mC]*d[5mC]*dA*dG*dT*dG*d[5mC]*d[5mC]*dT*dG*d[5mC]*eT*eG*eA*eG*e[5mC]) [ISIS 447143]"
  experimental_value: 28

[ask] Returns the measured body weight for the input sequence. Input: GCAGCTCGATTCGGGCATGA (antisense eG*e[5mC]*eA*eG*e[5mC]*dT*d[5mC]*dG*dA*dT*dT*d[5mC]*dG*dG*dG*e[5mC]*eA*eT*eG*eA) [ISIS 447118]
[reply] 27
